Test system: Nucleic Acid
param class (str): category from ΔTm; see ranges bin A (below 3), bin B (3 to below 7), bin C (7 or more)

INSERT INTO results (smiles_record, qualitative_label) VALUES
  ('CSc1cc(-c2ccc(-c3ccc(/N=C(\N)c4ccccn4)c(SC)c3)o2)ccc1/N=C(\N)c1ccccn1', 'bin A'),
  ('N=C(Nc1ccc(-c2ccc(-c3ccc(NC(=N)c4ccccn4)c(Cl)c3)o2)cc1Cl)c1ccccn1', 'bin A'),
  ('N=C(Nc1ccc(-c2ccc(-c3ccc(NC(=N)c4ccccc4)cc3)o2)cc1)c1ccccc1', 'bin C'),
  ('Cc1c(N=C(N)N)ccc(-c2ccc(-c3ccc(N=C(N)N)c(C)c3C)o2)c1C', 'bin A'),
  ('COc1cc(-c2ccc(-c3ccc(/N=C(\N)c4ccccn4)c(OC)c3)o2)ccc1/N=C(\N)c1ccccn1', 'bin B'),
  ('CC(C)Oc1cc(NC(=N)N)ccc1-c1ccc(-c2ccc(NC(=N)N)cc2OC(C)C)o1', 'bin A'),
  ('N=C(Nc1ccc(-c2ccc(-c3ccc(NC(=N)c4ccccn4)cc3Cl)o2)c(Cl)c1)c1ccccn1', 'bin A'),
  ('N=C(N)Nc1ccc(-c2ccc(-c3ccc(NC(=N)N)cc3C(F)(F)F)o2)c(C(F)(F)F)c1', 'bin A'),
  ('N=C(Nc1ccc(-c2ccc(-c3ccc(NC(=N)c4ccccn4)cc3)o2)cc1)c1ccccn1', 'bin C'),
  ('N=C(N)Nc1ccc(-c2ccc(-c3ccc(NC(=N)N)cc3)o2)cc1', 'bin C'),
  ('Cc1cc(NC(=N)c2ccccn2)ccc1-c1ccc(-c2ccc(NC(=N)c3ccccn3)cc2C)o1', 'bin C'),
  ('Cc1c(/N=C(\N)c2ccccn2)ccc(-c2ccc(-c3ccc(/N=C(\N)c4ccccn4)c(C)c3C)o2)c1C', 'bin B'),
  ('COc1cc(NC(=N)N)ccc1-c1ccc(-c2ccc(NC(=N)N)cc2OC)o1', 'bin A'),
  ('CSc1cc(-c2ccc(-c3ccc(N=C(N)N)c(SC)c3)o2)ccc1N=C(N)N', 'bin A'),
  ('COc1cc(-c2ccc(-c3ccc(N=C(N)N)c(OC)c3)o2)ccc1N=C(N)N', 'bin B'),
  ('N=C(N)c1ccc(-c2ccc(-c3ccc(C(=N)N)cc3)o2)cc1', 'bin C'),
  ('N=C(N)Nc1ccc(-c2ccc(-c3ccc(NC(=N)N)cc3Cl)o2)c(Cl)c1', 'bin B'),
  ('N=C(N)c1ccc(OCCCCCOc2ccc(C(=N)N)cc2)cc1', 'bin B'),
  ('COc1cc(NC(=N)c2ccccn2)ccc1-c1ccc(-c2ccc(NC(=N)c3ccccn3)cc2OC)o1', 'bin C'),
  ('N=C(N)Nc1ccc(-c2ccc(-c3ccc(N=C(N)N)c(Cl)c3)o2)cc1Cl', 'bin A');

* * *

Test system: Nucleic Acid
ΔTm listing for selected compounds.
READOUT_KIND: ΔTm

INSERT INTO results (smiles_record, readout_kind, measured_number) VALUES
  ('N=C(Nc1ccc(-c2ccc(-c3ccc(NC(=N)c4ccccn4)c(Cl)c3)o2)cc1Cl)c1ccccn1', 'ΔTm', 0.6),
  ('COc1cc(-c2ccc(-c3ccc(N=C(N)N)c(OC)c3)o2)ccc1N=C(N)N', 'ΔTm', 15.4),
  ('N=C(N)Nc1ccc(-c2ccc(-c3ccc(NC(=N)N)cc3)o2)cc1', 'ΔTm', 21.6),
  ('Cc1c(/N=C(\N)c2ccccn2)ccc(-c2ccc(-c3ccc(/N=C(\N)c4ccccn4)c(C)c3C)o2)c1C', 'ΔTm', 13.8),
  ('N=C(Nc1ccc(-c2ccc(-c3ccc(NC(=N)c4ccccn4)cc3)o2)cc1)c1ccccn1', 'ΔTm', 19.6),
  ('CSc1cc(-c2ccc(-c3ccc(/N=C(\N)c4ccccn4)c(SC)c3)o2)ccc1/N=C(\N)c1ccccn1', 'ΔTm', 1),
  ('N=C(N)Nc1ccc(-c2ccc(-c3ccc(N=C(N)N)c(Cl)c3)o2)cc1Cl', 'ΔTm', 12.7),
  ('CCOc1cc(-c2ccc(-c3ccc(N=C(N)N)c(OCC)c3)o2)ccc1N=C(N)N', 'ΔTm', 16.5),
  ('CSc1cc(-c2ccc(-c3ccc(N=C(N)N)c(SC)c3)o2)ccc1N=C(N)N', 'ΔTm', 12.2);

Value source: ChEMBL document CHEMBL1136067
